# MEASUREMENT TARGET: T1, αvβ3 integrin (human, UniProt P06756 31-1048; P05106 27-788)
# T1 construct: whole, on cells; Same entry used for αvβ3-K562, U-87 MG and A375M cells; also called αvβ3-K562; αvβ3 transfected K562 cells
# T1 sequence (P06756 31-1048, chain 1 of 2): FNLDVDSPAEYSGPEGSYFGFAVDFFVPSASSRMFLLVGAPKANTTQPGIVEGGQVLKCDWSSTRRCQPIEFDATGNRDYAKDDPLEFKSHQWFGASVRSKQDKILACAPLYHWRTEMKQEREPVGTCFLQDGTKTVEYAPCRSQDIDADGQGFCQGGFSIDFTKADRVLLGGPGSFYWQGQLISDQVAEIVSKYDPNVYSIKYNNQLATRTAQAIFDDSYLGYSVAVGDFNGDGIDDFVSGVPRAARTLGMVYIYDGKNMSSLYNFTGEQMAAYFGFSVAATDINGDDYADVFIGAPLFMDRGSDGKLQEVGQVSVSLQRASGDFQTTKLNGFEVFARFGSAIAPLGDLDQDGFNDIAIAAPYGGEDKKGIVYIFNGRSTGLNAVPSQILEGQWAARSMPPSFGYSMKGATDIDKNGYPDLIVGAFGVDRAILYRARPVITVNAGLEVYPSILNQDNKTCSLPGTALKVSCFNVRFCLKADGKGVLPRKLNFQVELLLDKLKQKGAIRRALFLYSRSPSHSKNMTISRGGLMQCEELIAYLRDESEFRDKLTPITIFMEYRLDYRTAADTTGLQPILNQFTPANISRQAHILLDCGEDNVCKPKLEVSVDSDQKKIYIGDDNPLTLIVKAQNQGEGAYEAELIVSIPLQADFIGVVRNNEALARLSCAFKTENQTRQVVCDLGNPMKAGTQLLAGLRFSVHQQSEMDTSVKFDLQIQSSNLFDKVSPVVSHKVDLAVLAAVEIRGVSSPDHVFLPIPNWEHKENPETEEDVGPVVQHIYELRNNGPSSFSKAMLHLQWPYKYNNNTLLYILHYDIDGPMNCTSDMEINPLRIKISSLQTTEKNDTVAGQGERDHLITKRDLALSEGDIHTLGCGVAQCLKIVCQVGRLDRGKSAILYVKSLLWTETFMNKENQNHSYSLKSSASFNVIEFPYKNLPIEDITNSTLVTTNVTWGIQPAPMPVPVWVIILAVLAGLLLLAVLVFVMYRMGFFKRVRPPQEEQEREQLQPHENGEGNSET
# T1 sequence (P05106 27-788, chain 2 of 2): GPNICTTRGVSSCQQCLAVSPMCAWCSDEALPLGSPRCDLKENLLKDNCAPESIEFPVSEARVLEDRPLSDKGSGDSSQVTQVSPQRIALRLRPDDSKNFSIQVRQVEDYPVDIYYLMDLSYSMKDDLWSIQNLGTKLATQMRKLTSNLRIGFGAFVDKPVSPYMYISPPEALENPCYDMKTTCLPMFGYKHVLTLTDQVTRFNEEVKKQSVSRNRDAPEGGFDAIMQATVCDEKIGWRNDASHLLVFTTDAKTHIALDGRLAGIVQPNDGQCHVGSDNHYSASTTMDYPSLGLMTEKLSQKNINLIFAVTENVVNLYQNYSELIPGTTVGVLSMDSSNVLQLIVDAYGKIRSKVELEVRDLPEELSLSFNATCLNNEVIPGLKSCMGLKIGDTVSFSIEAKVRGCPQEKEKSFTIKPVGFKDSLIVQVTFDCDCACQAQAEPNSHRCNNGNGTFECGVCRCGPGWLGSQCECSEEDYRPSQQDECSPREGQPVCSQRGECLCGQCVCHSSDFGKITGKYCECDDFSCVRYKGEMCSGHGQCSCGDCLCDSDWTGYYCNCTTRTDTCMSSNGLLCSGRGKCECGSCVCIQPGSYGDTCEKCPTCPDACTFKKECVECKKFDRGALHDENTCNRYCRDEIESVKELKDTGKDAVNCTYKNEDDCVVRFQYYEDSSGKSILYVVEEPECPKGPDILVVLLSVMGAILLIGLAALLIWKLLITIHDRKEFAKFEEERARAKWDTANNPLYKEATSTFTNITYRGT
# ASSAY NOTES: flow cytometry, saturation binding of LXW7-Bio on αvβ3-K562 cells, streptavidin-PE, nonspecific binding with 100 µM LXW7 subtracted
Bridge positions count the residues as written; N and C are the ends. Square brackets hold non-standard residues; d marks the D form. Ends that are not written are not given here. Ebes = 2,2'-ethylenedioxy bis(ethylamine) monosuccinamide
MEASURE NAME: Kd (nM)
State the answer as a number, implicitly in nM.

Record request: Kd value, item [dC]GRGD[dD][dV][dC]-{Ebes-Ebes-K(biotin)-NH2} (disulfide 1-8) [Biotinylated cyclo(cGRGDdvc)] 76
